Assay: Metabolic stability in human liver microsomes assessed as parent compound remaining at 5 uM in presence of NADPH regenerating system measured after 1 hr by LC/MS/MS method
Format: ADME, Microsome
Reported Stability is given for each of the following molecules.

These solved cases illustrate the format of a correct answer.
Molecular string | Result
COc1cc(-c2nc(-c3ccccc3)c(C(C)C)[nH]2)cc(OC)c1O | > 95%
CCc1nc(-c2cc(OC)c(O)c(OC)c2)[nH]c1CC | > 95%
COc1cc(-c2nc(-c3ccc(C)cc3)c(-c3ccc(C)cc3)[nH]2)cc(OC)c1O | > 95%
COc1cc(-c2nc(C(C)C)c(C(C)C)[nH]2)cc(OC)c1O | > 95%

Attention now turns to another entry.
What does the record list as Stability for `COc1cc(-c2nc(-c3ccccc3)c(-c3ccccc3)[nH]2)cc(OC)c1O` ?
> 95%
